# System: P. falciparum Dd2 (clone B2) asexual blood stage parasites
# PROTOCOL_TEXT: P. falciparum Dd2 asexual blood stage SYBR Green-I 72 h proliferation assay (qHTS)
# Format: cell-based, Plasmodium falciparum
# MEASUREMENT_PARAMETERS: Plasmodium falciparum, DD2, 72 h, SYBR Green 72 h; approximate value in μM; read-out: AC50 [μM], Dd2-B2 (parental line) (converted)
TEST_READOUT: AC50

Consider the worked cases shown below.
>  <COMPOUND>
CCCN1C(c2ccccc2)=NS(=O)(=O)c2cc(NC(=O)c3cccs3)ccc21 [NCGC00532332]

>  <TEST_READOUT>
AC50

>  <READOUT_VALUE>
0.586 µM

$$$$
>  <COMPOUND>
CCCN1C(CC(C)C)=NS(=O)(=O)c2cc(NC(=O)c3sccc3Cl)ccc21 [NCGC00531529]

>  <TEST_READOUT>
AC50

>  <READOUT_VALUE>
2.25 µM

$$$$
>  <COMPOUND>
CN1C(c2ccccc2)=NS(=O)(=O)c2cc(NC(=O)c3ccc(F)cc3)ccc21 [NCGC00651719]

>  <TEST_READOUT>
AC50

>  <READOUT_VALUE>
> 29 µM

$$$$

Turning to the following compound.
Q) GET /values?readout=AC50&item= CCCN1C(CC(C)C)=NS(=O)(=O)c2cc(NC(=O)c3ccc(Cl)s3)ccc21 [NCGC00523535]
A) 1.53 µM
